Tested on: E21 (patient-derived glioblastoma stem cells of mesenchymal subtype)
Experiment: phenotypic distance (Euclidean, principal components) from DMSO controls (arbitrary units); higher = stronger morphological change;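 also: cell Painting imaging in 384-well plates, CellProfiler features reduced to at least 20 principal components, Euclidean distance versus same-plate DMSO vehicle wells (0.1% v/v), median over six images per well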
Settings: 3000 nM; exposure time: 72 h
phenotypic distance by entry:
Number, no unit, nothing else.

Examples with answers:
| molecule | phenotypic distance |
| --- | --- |
| CCC(C)(C)C(=O)O[C@H]1C[C@@H](C)C=C2C=C[C@H](C)[C@H](CC[C@@H]3C[C@@H](O)CC(=O)O3)[C@H]21 [Simvastatin] | 5.96 |
| C[C@H]1O[C@@H](O[C@H]2[C@@H](O)C[C@H](O[C@H]3[C@@H](O)C[C@H](O[C@H]4CC[C@@]5(C)[C@H](CC[C@@H]6[C@@H]5C[C@@H](O)[C@]5(C)[C@@H](C7=CC(=O)OC7)CC[C@]65O)C4)O[C@@H]3C)O[C@@H]2C)C[C@H](O)[C@@H]1O [Digoxin] | 6.15 |

Attention now turns to another entry.
Lookup: So what's the measured phenotypic distance for this one? Clc1ccc(C(Cn2ccnc2)OCc2ccsc2Cl)c(Cl)c1 (stereo not drawn) [Tioconazole]
Found: 1.33

###

phenotypic distance by entry:
System: E57 (patient-derived glioblastoma stem cells of mesenchymal subtype)
Assay: phenotypic distance (Euclidean, principal components) from DMSO controls (arbitrary units); higher = stronger morphological change
Conditions: 333.3 nM; exposure time: 72 h
Where a name gives a salt, the structure may show the parent alone.
Number, no unit, nothing else.

Examples with answers:
| compound | phenotypic distance |
| --- | --- |
| CC(=O)CC(c1ccc([N+](=O)[O-])cc1)c1c(O)c2ccccc2oc1=O (stereo not given) [Acenocoumarol] | 0.492 |
| CC(C)C[C@H]1C(=O)N2CCC[C@H]2[C@]2(O)O[C@](NC(=O)[C@@H]3C=C4c5cccc6[nH]c(Br)c(c56)C[C@H]4N(C)C3)(C(C)C)C(=O)N12 [Bromocryptine mesylate] | 0.51 |
| COC(=O)C[C@](O)(CCCC(C)(C)O)C(=O)O[C@@H]1C(OC)=C[C@]23CCCN2CCc2cc4c(cc2[C@H]13)OCO4 [Homoharringtonine] | 6.69 |
| C[C@@H]1C[C@@H]([C@H](O)CC2CC(=O)NC(=O)C2)C(=O)[C@@H](C)C1 [Cycloheximide] | 4.4 |
| Cn1nnc2c(C(N)=O)ncn2c1=O [Temozolomide] | 0.816 |

Lookup: So what's the measured phenotypic distance for this one? CC(C)C[C@H](NC(=O)CNC(=O)c1cc(Cl)ccc1Cl)B(O)O [Ixazomib]
Found: 10.1

Lookup: Ok, now CN1C(=O)CC(c2ccccc2)C1=O (stereo not given) [Phensuximide]
Found: 0.878

Lookup: Ok, now Cc1[nH]nc(C(F)(F)F)c1Cc1sc2c(c1C(=O)N1C[C@](C)(O)CO1)c(=O)n(C)c(=O)n2C(C)C [AZD3965]
Found: 1.65

Lookup: Ok, now N=c1ccn2c(n1)O[C@H]1[C@H](O)[C@@H](CO)O[C@H]12 [Ancitabine hydrochloride]
Found: 6.65

Lookup: Ok, now COc1cc(/C=C/C(=O)N2CCC=CC2=O)cc(OC)c1OC [Piperlongumine]
Found: 0.518

Lookup: Ok, now CN(c1nccc(=O)[nH]1)C1CCN(c2nc3ccccc3n2Cc2ccc(F)cc2)CC1 [Mizolastine]
Found: 0.54

Lookup: Ok, now C#C[C@]1(O)CC[C@H]2[C@@H]3CCc4cc(OC5CCCC5)ccc4[C@H]3CC[C@@]21C [Quinestrol]
Found: 0.452

Lookup: Ok, now CCCCCCCCCCCCCC(=O)O[C@@H]1[C@@H](C)[C@@]2(O)[C@@H](C=C(CO)C[C@]3(O)C(=O)C(C)=C[C@@H]23)[C@@H]2C(C)(C)[C@]12OC(C)=O [Phorbol 12-myristate 13-acetate]
Found: 6.38

Lookup: Ok, now CCCCCCCCCCCCCCCC[N+](C)(C)CCN(Cc1ccc(OC)cc1)c1ncccn1 [Thonzonium bromide]
Found: 1.33

Lookup: Ok, now CNCCc1ccccn1 [Betahistine mesylate]
Found: 0.721

The values you see were collected from the supplement of paper PMC13207355.
